Data credit: PubChem BioAssay AID504720

Here, each record is paired with measured activation data.
ASSAY_SYSTEM: Endoribonuclease toxin MazF (Escherichia coli (strain K12))
PROTOCOL_SUMMARY: activators of E. coli MazEF toxin-antitoxin RNase, primary screen, biochemical, fluorescence, uHTS (AID 504720)
SETTINGS: FAM/BHQ RNA-DNA oligo cleavage fluorescence, 5 h, at 20 µM, active compounds read high
Among all 350,000 compounds or so, about 1,100 (0.31%) were called active. What follows is part of a selection rich in actives, with near analogues and random picks from the rest.
VALUE_TYPE: activation (%)

COMPOUND_STRING: Cc1ccccc1CSc1nnc(-c2cccnc2)n1N
VALUE_REPORTED: -17.4
--
COMPOUND_STRING: COc1ccc(S(=O)(=O)N2CCOC23CCN(S(=O)(=O)c2ccc([N+](=O)[O-])cc2)CC3)cc1
VALUE_REPORTED: 5.08
--
COMPOUND_STRING: CCN1/C(=C/c2ccc3ccc(C)cc3[n+]2CC)Sc2ccccc21
VALUE_REPORTED: 72.6
--
COMPOUND_STRING: O=C1CN(C(=O)c2cc(F)cc(F)c2)c2ccccc2N1
VALUE_REPORTED: 10.5
--
COMPOUND_STRING: CCCn1c(=O)c2c(C(F)(F)F)cc(-c3cccs3)nc2n(CCC)c1=O
VALUE_REPORTED: 11.8
